# system: recombinant eIF4E (Homo sapiens (Human), UniProt P06730)
# Sequence (P06730 whole entry): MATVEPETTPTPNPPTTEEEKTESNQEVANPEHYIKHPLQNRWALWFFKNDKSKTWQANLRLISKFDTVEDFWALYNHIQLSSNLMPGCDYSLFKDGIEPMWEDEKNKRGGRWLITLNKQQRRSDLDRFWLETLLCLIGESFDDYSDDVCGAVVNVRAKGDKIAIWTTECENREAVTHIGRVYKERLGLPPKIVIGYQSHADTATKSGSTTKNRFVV
# assayRemarks: Fluorescence polarization competition assay for eIF4E binding potency
# particulars: inhibition of eIF4E/EDA-m7GDP-ATTO-550 binding by 50%; Table 4B calculated values; read-out: IC50
Entries annotated with measured pIC50
Value format note: pIC50 is -log10 of concentration (mol/L); just state the number.

- Cc1cc(-c2cc(Cl)ccc2OCCn2c(C)nc3c(C)nc(-c4cnc(N)cc4F)c(C#N)c3c2=O)c2scc(C(=O)O)c2n1: 7.38
- Cc1cc(-c2cc(Cl)ccc2OCCn2c(C)nc3cc(C(F)(F)F)c(-c4cccnc4)c(C#N)c3c2=O)c2scc(C(=O)O)c2n1: 7.30
- CCOc1c(C(F)(F)F)cc2nc(C)n(CCOc3ccc(Cl)cc3-c3cc(C)nc4c(C(=O)O)csc34)c(=O)c2c1C#N: 7.24

Give reported pIC50 value for Cc1nc2cc(C(F)(F)F)cc(C#N)c2c(=O)n1CCOc1ccc(Cl)cc1C1CCNC(C(=O)O)C1 (stereo not shown)
6.61

Give reported pIC50 value for `Cc1cc(-c2cc(Cl)ccc2OCCn2c(C)nc3cnc(-c4cc(Cl)ccc4Cl)c(C#N)c3c2=O)c2scc(C(=O)O)c2n1`
8.08

Give reported pIC50 value for `CSc1c(-c2cc(Cl)ccc2OCCn2c(C)nc3cnc(C4CC4)c(C#N)c3c2=O)ccnc1C(=O)O`
6.86

Give reported pIC50 value for `Cc1nc2cc(Cl)c3c(cnn3C)c2c(=O)n1CCOc1ccc(Cl)cc1-c1ccnc2c(C(=O)O)csc12`
6.70

Give reported pIC50 value for `O=C(O)c1cccc(-c2cc(Cl)ccc2OCCn2ccc3ncccc3c2=O)c1`
5.19

====

# system: recombinant eIF4E (Homo sapiens (Human))
# assayRemarks: Fluorescence polarization competition assay for eIF4E binding potency
# particulars: inhibition of eIF4E/EDA-m7GDP-ATTO-550 binding by 50%; Table 4B calculated values; read-out: IC50
recordedEndpoint: pIC50
Value format note: pIC50 is -log10 of concentration (mol/L); just state the number.

Some molecules with known pIC50 results, for comparison:
- Cc1cc(-c2cc(Cl)ccc2OCCn2c(C)nc3cc(C(F)(F)F)c(C4=CCN(C)CC4)c(C#N)c3c2=O)c2scc(C(=O)O)c2n1 [compound 373]: 8.19
- O=C(O)c1cccc(-c2cc(Cl)ccc2OCCn2cnc3ncncc3c2=O)c1 [compound 17]: 6.14
- Cc1nc2cc(C(F)(F)F)cc(C#N)c2c(=O)n1CCOc1ccc(Cl)cc1-c1cc(CN)nc2c(C(=O)O)csc12 [compound 452]: 7.33
- N#Cc1cc2c(=O)n(CCOc3ccc(Cl)cc3-c3csc(C(=O)O)c3)cnc2cn1 [compound 80]: 6.96

Give reported pIC50 value for Cc1nc2cc(C(F)(F)F)c(CN3CCN(C)CC3)c(C#N)c2c(=O)n1CCOc1ccc(Cl)cc1-c1cc(CCF)nc2c(C(=O)O)csc12 [compound 644]
8.30

Give reported pIC50 value for Cc1cc(-c2cc(Cl)ccc2OCCn2c(C)nc3cc(C(F)(F)F)c(-c4ccccc4C#N)nc3c2=O)c2scc(C(=O)O)c2n1 [345a]
7.36

Give reported pIC50 value for Cc1nc2cnc(N(C)C3CCN(CC(F)(F)CO)CC3)c(C#N)c2c(=O)n1CC#Cc1ccc(Cl)cc1-c1ccnc2c(C(=O)O)csc12 [compound 1132]
7.88

Give reported pIC50 value for CC#Cc1nc2c(=O)n(CCOc3ccc(Cl)cc3-c3cc(C)nc4c(C(=O)O)csc34)c(C)nc2cc1C(F)(F)F [compound 784]
7.86

Give reported pIC50 value for Cc1nc2cc(C(F)(F)F)cc(C#N)c2c(=O)n1CCOc1ccc(Cl)cc1-c1ccnc2c(C(=O)O)c(C(F)(F)F)sc12 [compound 666]
6.57

Give reported pIC50 value for Cc1cc(-c2cc(Cl)ccc2OCCn2c(C)nc3cc(OC(F)F)c(CCN(C)C)c(C#N)c3c2=O)c2scc(C(=O)O)c2n1 [compound 592]
7.99

Give reported pIC50 value for Cc1nc2cnc(S(=O)(=O)N3CCN(C)CC3)c(C#N)c2c(=O)n1CCOc1ccc(Cl)cc1-c1ccnc2c(C(=O)O)csc12 [compound 821]
7.85

Give reported pIC50 value for Cc1nc2cc(F)c(F)c(C#N)c2c(=O)n1CCOc1ccc(Cl)cc1-c1ccnc2c(C(=O)NS(C)(=O)=O)csc12 [compound 307]
7.23

Give reported pIC50 value for Cc1nc2cc(Cl)c(OC(F)(F)F)c(C#N)c2c(=O)n1CCOc1ccc(Cl)cc1-c1ccnc2c(C(=O)O)csc12 [compound 550]
7.06

Give reported pIC50 value for Cc1nc2cnc(/C=C/CN3CCC(F)(F)CC3)c(C#N)c2c(=O)n1CCOc1ccc(Cl)cc1-c1ccnc2c(C(=O)O)csc12 [compound 1121]
8.03

Give reported pIC50 value for Cc1cc(-c2cc(Cl)ccc2OCCn2c(C)nc3cnc(-c4ccccc4Cl)c(C#N)c3c2=O)c2scc(C(=O)O)c2n1 [compound 947]
7.63

Give reported pIC50 value for Cc1nc2cnc(C3CCN(CC(F)(F)F)CC3)c(C#N)c2c(=O)n1CC#Cc1ccc(Cl)cc1-c1ccnc2c(C(=O)O)csc12 [compound 1116]
7.77
